Assay: Quantitative High-Throughput drug screen in 47 multiple myeloma cell lines against the NCATS MIPE library collection: KMS12PE_JCRB cell viability assay (AID 1918972); also: nearly all actives have a fitted effect of over 30% in size; also: potency is read from the fitted curve at half-maximal effect
Details: KMS12PE myeloma viability, CellTiter-Glo ATP, 48 h; series mostly up to 45.8 µM
Excerpt: PI: Beverly A. Mock Ph.D. Laboratory of Cancer Biology and Genetics, Center for Cancer Research, National Cancer Institute, National Institute of Health, Bethesda, Maryland […] 5; Detector; 425V; Luminescence; Viewlux PerkinElmer. […] 1. […] Briefly, the corresponding myeloma cell lines were screened in 1,536-well plates with 500 cells, 5-uL per well for inhibition of cell viability (assessed by measuring ATP levels with CellTiterGlo). […]
Records with an inconclusive call do not appear. The source made the active and inactive calls. Calls follow the shape of the dose curve; as a rule, active = well fitted cell-killing curve with a large enough effect; inconclusive = small, poorly fitted or top-dose-only effect, or effect the other way; inactive = no such curve, though single readings can be large or run the other way.

# MOLECULE, Potency
records = [
    ("CC1(C)CC(=O)c2c(C(F)(F)F)nn(-c3ccc(C(N)=O)c(NC4CCC(OC(=O)CN)CC4)c3)c2C1 (stereo not given)", "0.132 µM (active)"),
    ("C=C1C(=CC=C2CCCC3(C)[C@@H]([C@H](C)C=CC=CC(O)(CC)CC)CC[C@@H]23)C[C@@H](O)C[C@@H]1O (stereo not given in full)", "14.8 µM (active)"),
    ("CCS(=O)(=O)c1cccc(-c2cc(C(=O)NC3CCN(C)CC3)c(C)c3[nH]c4ncc(C)cc4c23)c1", "3.32 µM (active)"),
    ("Cc1ccc(S(=O)(=O)Nc2cc(Cl)ccc2C(=O)Nc2nc(-c3ccccc3)cs2)cc1", "2.64 µM (active)"),
    ("COC(=O)c1ccc2c(C(=Nc3ccc(N(C)C(=O)CN4CCN(C)CC4)cc3)c3ccccc3)c(O)[nH]c2c1", "0.526 µM (active)"),
    ("CC=CC1=C(C(=O)O)N2C(=O)[C@H](NC(=O)[C@H](N)c3ccc(O)cc3)[C@@H]2SC1", "inactive"),
    ("CC(C)(C)c1cc(C(C)(C)C)c(NC(=O)c2c[nH]c3ccccc3c2=O)cc1O", "inactive"),
    ("Cc1cc(Nc2ncnc3ccc(-c4ccc(CNCCS(C)(=O)=O)o4)cc23)ccc1Oc1ccn2ncnc2c1", "5.26 µM (active)"),
    ("c1ccc2c(CCNc3ccc(Nc4ccncc4)cc3)c[nH]c2c1", "5.26 µM (active)"),
    ("NCC(=O)Nc1ccc(-n2nc(C(F)(F)F)cc2-c2ccc3c(ccc4ccccc43)c2)cc1", "0.526 µM (active)"),
    ("COc1cccc2c(NCc3ccccc3)nc(-n3c(N)nc4ccccc43)nc12", "2.35 µM (active)"),
    ("O=C(C=Cc1cccc(S(=O)(=O)Nc2ccccc2)c1)NO", "1.36 µM (active)"),
    ("C=CCn1c(=O)c2cnc(Nc3ccc(N4CCN(C)CC4)cc3)nc2n1-c1cccc(C(C)(C)O)n1", "0.118 µM (active)"),
    ("Cn1cncc1[C@@](N)(c1ccc(Cl)cc1)c1ccc2c(c1)c(-c1cccc(Cl)c1)cc(=O)n2C", "3.32 µM (active)"),
    ("COc1ccc(C=Cc2cc(OC)c(OC)c(OC)c2)cc1O", "inactive"),
]
